Experiment: oral bioavailability in a rat model
Conditions: in vivo, in 90% phosphatidylcholine+medium chain triglycerides 53/29 and 10% ethanol
value_kind: bioavailability (%)
Answers are plain numbers, in %.

Which bioavailability is listed for CN(C)CC[C@H](CSc1ccccc1)Nc1ccc(S(=O)(=O)NC(=O)c2ccc(N3CCN(Cc4ccccc4-c4ccc(Cl)cc4)CC3)cc2)cc1[N+](=O)[O-] [ABT-737] ? 3.3
